Origin of the recorded values: patent US9102899B2

assay: Odour threshold by gas chromatograph with sniff port, panel of trained individuals; conditions: GC sniff port; absolute amount of compound delivered at the sniff port; same panel, couples evaluated on the same day
As shown below, each of these compounds has a reported Odour threshold value.
# output: bare number, implied unit ng

Examples with answers:
CCCCCC=C(C#N)c1ccccc1 (stereo in doubt)	2
CCC(C)=C(C#N)c1ccccc1 (racemic)	3
CCC(C)C(C#N)c1ccccc1 (stereo not shown) [Comparison Example 3A, reference compound]	26

What value of Odour threshold has been reported for the following compound? CCCCCCC(C#N)c1ccccc1 (stereo not shown) [Comparison Example 2A, reference compound]
15
